Please go through the items and note down their Inhibition.
tested on: Cryptococcus neoformans; conditions: Concentration 20 uM; ASSAY_TEST Inhibition of Fungal Growth; detection method Resazurin; Absorption (OD600-OD570); plate type 384well; NBS; CORNING #3640
Description: Antifungal activity against Cryptococcus neoformans H99 ATCC 208821 (CO-ADD:FG_002); MIC in YNB media using NBS plates, by Resazurin OD(600-570)
Measured potencies and affinities stand elsewhere.
Kindly provide the numeric value in % only, without the unit symbol.

Enquiry: What value of measured Inhibition is listed for Cc1nn(-c2ccccc2)c2c1C(c1ccc([N+](=O)[O-])cc1)C(C#N)=C(N)O2 (centres undefined) ?
Return: -5.09

Enquiry: // repeat for Cl.Nc1ncnc2c(C3OC(CO)C(O)C3O)c[nH]c12 (centres undefined) and report
Return: -0.14

Enquiry: // repeat for O=C1c2cc([N+](=O)[O-])ccc2-c2cc(Br)c(NC(=NO)C(F)(F)F)cc21 and report
Return: -6.6

Enquiry: // repeat for O=C1OCC/C1=C\c1ccc(O)cc1 and report
Return: 0.19

Enquiry: // repeat for COC(=O)Cc1[nH]c(Cl)nc1C(N)=O and report
Return: 7.24

Enquiry: // repeat for NS(=O)(=O)c1ccc(NC(=S)NC(=O)c2ccco2)cc1 and report
Return: -12.16

Enquiry: // repeat for O=[N+]([O-])c1ccc2c3ccccc3[s+]([O-])c2c1 (centres undefined) and report
Return: -11.15

Enquiry: // repeat for O=C1c2ccccc2C(=O)c2[nH]cnc21 and report
Return: 21.89

Enquiry: // repeat for c1ccc2nc(NN=C3CCCCC3)ccc2c1 and report
Return: -6.92

Enquiry: // repeat for NNC(=O)CNc1cccc(Br)c1 and report
Return: -4.46

Enquiry: // repeat for CCNc1ccccc1C(=O)O and report
Return: 2.27

Enquiry: // repeat for Cc1c(CCO)c(=O)n2n1CCCC2 and report
Return: 3.75

Enquiry: // repeat for CCCc1nc2c(=O)n(C)c(=O)n(C)c2[nH]1 and report
Return: -4.69

Enquiry: // repeat for CC(C)c1cc(C(F)(F)F)nc(NNc2nc(C(C)C)cc(C(F)(F)F)n2)n1 and report
Return: -5.35

Enquiry: // repeat for NC(=O)/C(=C\c1ccncc1)c1cccc2ccccc12 and report
Return: -6.45

Enquiry: // repeat for O=C(O)CCc1cccnc1 and report
Return: -2.51

Enquiry: // repeat for O=C1c2ccccc2NC(c2cc(Cl)cc(Cl)c2O)N1CCc1ccccn1 (centres undefined) and report
Return: -0.4

Enquiry: // repeat for CCCCSc1[nH]cnc2nncc1-2 and report
Return: -16.47

Enquiry: // repeat for CC(C)c1cc(C(C)C)n2nc(N)nc2n1 and report
Return: -7.51

Enquiry: // repeat for CCOC(=O)C1(C#N)C(=O)CS/C1=N/c1ccccc1Cl (centres undefined) and report
Return: -13.01

Enquiry: // repeat for COc1ccccc1N1C(=O)CC(Sc2ccccc2N)C1=O (centres undefined) and report
Return: -6.31

Enquiry: // repeat for COC(=O)c1cc2c(n1S(=O)(=O)c1ccc(C)cc1)C(=O)C(=O)c1[nH]cc(C(=O)OCc3ccccc3)c1-2 and report
Return: -5.89

Enquiry: // repeat for CCOC(=O)c1nn(-c2ccccc2)cc1O and report
Return: -2.21

Enquiry: // repeat for COc1cc2oc3cc(C)oc(=O)c3c2cc1OC and report
Return: -16.92
